# ASSAY_TEXT: Cmax in monkey at 5 mg/kg, ig administered for 28 days by LC-MS/MS analysis
# Format: ADME, organism-based, Macaca mulatta
# Set-up: route intragastric, time 28 day, dose 5 mg/kg
# APPLIED_CONDITIONS: rhesus monkey, in vivo, po
ASSAY_METRIC: Cmax (ng/mL)
One number for each entry, in ng/mL.

stdin: Query: Cmax; subject: CN1CCC(=C(F)c2cccc(NC(=O)c3c(F)cc(F)cc3F)n2)CC1
stdout: 3410

---

# ASSAY_TEXT: Cmax in monkey at 1 mg/kg, ig administered for 28 days by LC-MS/MS analysis
# Type: ADME, organism-based, Macaca mulatta
# Design: route intragastric, dose 1 mg/kg, time 28 day
# APPLIED_CONDITIONS: rhesus monkey, in vivo, po
ASSAY_METRIC: Cmax (ng/mL)
One number for each entry, in ng/mL.

stdin: Query: Cmax; subject: CN1CCC(=C(F)c2cccc(NC(=O)c3c(F)cc(F)cc3F)n2)CC1
stdout: 764

---

# ASSAY_TEXT: Cmax in monkey at 25 mg/kg, ig administered for 28 days by LC-MS/MS analysis
# Assay type: ADME, organism-based, Macaca mulatta
# Parameters: route intragastric, dose 25 mg/kg, time 28 day
# APPLIED_CONDITIONS: rhesus monkey, in vivo, po
ASSAY_METRIC: Cmax (ng/mL)
Numbers only, in ng/mL.

stdin: Query: Cmax; subject: CN1CCC(=C(F)c2cccc(NC(=O)c3c(F)cc(F)cc3F)n2)CC1
stdout: 3630

---

# ASSAY_TEXT: AUC (0 to 24hrs) in monkey at 1 mg/kg, ig by LC-MS/MS analysis
# Type: ADME, organism-based, Macaca mulatta
# Set-up: time < 24 hr, route intragastric, dose 1 mg/kg
# APPLIED_CONDITIONS: rhesus monkey, in vivo, po
ASSAY_METRIC: AUC(0-t) at 24 h
// unit must come after the numeric part

stdin: Query: AUC(0-t) at 24 h; subject: CN1CCC(=C(F)c2cccc(NC(=O)c3c(F)cc(F)cc3F)n2)CC1
stdout: 3200 ng·h/mL

---

# TGT: UniProt P30939
# ASSAY_TEXT: Agonist activity at 5HT1F receptor (unknown origin) expressed in HEK293 cells measured after 60 mins by Fluo-4AM dye based FLIPR assay
# APPLIED_CONDITIONS: read-out: IC50 (the source's name)
Can you tell me pEC50 for the items I'm about to list?
One number for each entry, as −log10 of the molar value.

Here are 8 molecules together with their reported answers.
CN1CCC(=C(F)c2cccc(NC(=O)c3ccc(F)cc3)n2)CC1 ... 8.20
CN1CCC(=C(F)c2cccc(NC(=O)c3ccc(Cl)cc3F)n2)CC1 ... 7.63
CN1CCC(=C(F)c2cccc(NC(=O)c3ccc(F)cn3)n2)CC1 ... 7.61
CCN1CCC(=C(F)c2cccc(NC(=O)c3c(F)cc(F)cc3F)n2)CC1 ... 6.75
CN1CCC(=C(F)c2cccc(NC(=O)c3c(F)cc(F)cc3F)n2)CC1 ... 7.71
O=C(Nc1cccc(C(F)=C2CCN(C3CC3)CC2)n1)c1c(F)cc(F)cc1F ... 6.24
O=C(Nc1cccc(C(F)=C2CCN(C(F)F)CC2)n1)c1c(F)cc(F)cc1F ... 6.09
CN1CCC(=C(F)c2cccc(NC(=O)c3ccc(Cl)cn3)n2)CC1 ... 6.79

Give pEC50 for each of the items listed below.
1. CN1CCC(=C(F)c2cccc(NC(=O)c3ccc(Cl)cc3)n2)CC1
2. CN1CCC(=C(F)c2cccc(NC(=O)c3ccc(F)cc3F)n2)CC1

stdout:
[7.53, 8.33]

---

# ASSAY_TEXT: Toxicity in ig dosed Sprague-Dawley rat administered for 28 days
# Type: organism-based
# APPLIED_CONDITIONS: in vivo, po, time 28 day
ASSAY_METRIC: NOAEL at 672 h (mg/kg/day)
Answers are plain numbers, in mg/kg/day.

stdin: Query: NOAEL at 672 h; subject: CN1CCC(=C(F)c2cccc(NC(=O)c3c(F)cc(F)cc3F)n2)CC1
stdout: 50

---

# TGT: 5-hydroxytryptamine receptor 1A (Homo sapiens, UniProt P08908)
# Sequence (P08908 whole entry): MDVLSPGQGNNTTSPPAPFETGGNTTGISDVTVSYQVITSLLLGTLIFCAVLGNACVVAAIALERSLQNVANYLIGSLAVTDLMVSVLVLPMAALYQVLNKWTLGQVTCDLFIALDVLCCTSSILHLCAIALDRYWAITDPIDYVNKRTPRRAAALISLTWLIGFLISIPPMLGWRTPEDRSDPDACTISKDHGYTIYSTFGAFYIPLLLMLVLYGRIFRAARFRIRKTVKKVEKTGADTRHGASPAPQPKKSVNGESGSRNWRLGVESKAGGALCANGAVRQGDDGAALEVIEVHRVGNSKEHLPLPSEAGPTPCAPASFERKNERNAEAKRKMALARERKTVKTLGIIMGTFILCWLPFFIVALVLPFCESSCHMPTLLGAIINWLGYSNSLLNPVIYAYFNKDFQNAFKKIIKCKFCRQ
ASSAY_METRIC: pIC50
Answers are plain numbers, as −log10 of the molar value.

stdin: Query: pIC50; subject: CN1CCC(=C(F)c2cccc(NC(=O)c3c(F)cc(F)cc3F)n2)CC1
stdout: 6.82

---

# ASSAY_TEXT: AUC (0 to 24hrs) in Sprague-Dawley rat at 15 mg/kg, ig by LC-MS/MS analysis
# Type: ADME, organism-based
# Set-up: time < 24 hr, route intragastric, dose 15 mg/kg
# APPLIED_CONDITIONS: in vivo, po
ASSAY_METRIC: AUC(0-t) at 24 h (ng·h/mL)
Give bare numbers, in ng·h/mL.

stdin: Query: AUC(0-t) at 24 h; subject: CN1CCC(=C(F)c2cccc(NC(=O)c3c(F)cc(F)cc3F)n2)CC1
stdout: 849

---

# TGT: 5-hydroxytryptamine receptor 1F (Homo sapiens) (UniProt P30939)
# Sequence (P30939 whole entry): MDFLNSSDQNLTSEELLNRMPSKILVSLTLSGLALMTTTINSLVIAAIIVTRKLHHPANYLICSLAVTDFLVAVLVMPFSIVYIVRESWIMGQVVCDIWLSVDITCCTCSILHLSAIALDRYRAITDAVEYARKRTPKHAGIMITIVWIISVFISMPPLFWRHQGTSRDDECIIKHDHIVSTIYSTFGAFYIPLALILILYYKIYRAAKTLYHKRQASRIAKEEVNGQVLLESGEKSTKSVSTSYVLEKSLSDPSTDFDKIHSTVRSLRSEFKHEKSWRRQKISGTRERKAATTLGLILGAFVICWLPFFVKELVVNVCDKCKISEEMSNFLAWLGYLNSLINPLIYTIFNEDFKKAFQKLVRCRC
# ASSAY_TEXT: Potency index, ratio of lasmiditan EC50 to test compound EC50 for agonist activity at 5HT1F receptor (unknown origin) expressed in HEK293 cells measured after 60 mins by Fluo-4AM dye based FLIPR assay
# Format: functional, cell-based
Can you tell me Ratio EC50 for the items I'm about to list?
Answers are plain numbers.

Here are 4 molecules together with their reported answers.
CN1CCC(=C(F)c2cccc(NC(=O)c3ccc(F)cc3F)n2)CC1 ... 3
CN1CCC(=C(F)c2cccc(NC(=O)c3ccc(Cl)cc3F)n2)CC1 ... 3
CN1CCC(=C(F)c2cccc(NC(=O)c3c(F)cc(F)cc3F)n2)CC1 ... 4
CN1CCC(=C(F)c2cccc(NC(=O)c3ccc(Cl)cc3)n2)CC1 ... 3

stdin: Query: Ratio EC50; subject: CN1CCC(=C(F)c2cccc(NC(=O)c3ccc(F)cc3)n2)CC1
stdout: 3

---

# ASSAY_TEXT: Cmax in Sprague-Dawley rat at 1 mg/kg, iv measured for 24 hrs by LC-MS/MS analysis
# Type: ADME, organism-based
# Design: route intravenous, dose 1 mg/kg, time 24 hrs
# APPLIED_CONDITIONS: in vivo
If the reported Cmax equals or exceeds 70 ng/mL, assign rule met. If not, assign rule not met.

Below, 5 compounds whose answers are already recorded.
CN1CCC(=C(F)c2cccc(NC(=O)c3c(F)cc(F)cc3F)n2)CC1 ... rule met
CN1CCC(=C(F)c2cccc(NC(=O)c3ccc(F)cc3)n2)CC1 ... rule met
CN1CCC(=C(F)c2cccc(NC(=O)c3ccc(Cl)cc3)n2)CC1 ... rule not met
CN1CCC(=C(F)c2cccc(NC(=O)c3ccc(F)cn3)n2)CC1 ... rule met
CN1CCC(C(=O)c2cccc(NC(=O)c3c(F)cc(F)cc3F)n2)CC1 ... rule not met

stdin: I'd appreciate it if you could say whether CN1CCC(=C(F)c2cccc(NC(=O)c3ccc(Cl)cc3F)n2)CC1 has Cmax at least equal to 70 ng/mL.
stdout: rule met

stdin: I'd appreciate it if you could say whether CN1CCC(=C(F)c2cccc(NC(=O)c3ccc(F)cc3F)n2)CC1 has Cmax at least equal to 70 ng/mL.
stdout: rule met

---

# ASSAY_TEXT: AUC(0 to t) in Sprague-Dawley rat at 5 mg/kg, ig measured for 24 hrs by LC-MS/MS analysis
# Type: ADME, organism-based
# Design: time 24 hrs, dose 5 mg/kg
# APPLIED_CONDITIONS: in vivo, po
If the reported AUC(0-t) at 24 h equals or exceeds 200 ng·h/mL, assign true (1). If not, assign false (0).

CN1CCC(=C(F)c2cccc(NC(=O)c3ccc(Cl)cc3F)n2)CC1 ... false (0)

stdin: I'd appreciate it if you could say whether CN1CCC(=C(F)c2cccc(NC(=O)c3ccc(F)cn3)n2)CC1 has AUC(0-t) at 24 h at least equal to 200 ng·h/mL.
stdout: false (0)

stdin: I'd appreciate it if you could say whether CN1CCC(=C(F)c2cccc(NC(=O)c3ccc(Cl)cc3)n2)CC1 has AUC(0-t) at 24 h at least equal to 200 ng·h/mL.
stdout: false (0)

---

# ASSAY_TEXT: AUC (0 to 24hrs) in Sprague-Dawley rat at 150 mg/kg, ig by LC-MS/MS analysis
# Type: ADME, organism-based
# Parameters: time < 24 hr, route intragastric, dose 150 mg/kg
# APPLIED_CONDITIONS: in vivo, po
ASSAY_METRIC: AUC(0-t) at 24 h (ng·h/mL)
Give bare numbers, in ng·h/mL.

stdin: Query: AUC(0-t) at 24 h; subject: CN1CCC(=C(F)c2cccc(NC(=O)c3c(F)cc(F)cc3F)n2)CC1
stdout: 10200
